PET hydrolysis by entry:
experiment summary: PET hydrolysis, aromatic products released after 48 h (umol product/mg enzyme); higher = more PET depolymerization activity
assay conditions: substrate: aFilm; 40 °C; pH 6.5
measured quantity: PET hydrolysis

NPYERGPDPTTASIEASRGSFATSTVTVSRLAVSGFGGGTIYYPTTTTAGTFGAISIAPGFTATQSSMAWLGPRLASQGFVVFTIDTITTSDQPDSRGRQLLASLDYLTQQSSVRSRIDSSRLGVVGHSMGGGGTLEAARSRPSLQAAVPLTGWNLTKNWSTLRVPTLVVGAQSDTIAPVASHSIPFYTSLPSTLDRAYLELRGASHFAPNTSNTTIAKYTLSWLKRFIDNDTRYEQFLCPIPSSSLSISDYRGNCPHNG [ESM167]; 6.5
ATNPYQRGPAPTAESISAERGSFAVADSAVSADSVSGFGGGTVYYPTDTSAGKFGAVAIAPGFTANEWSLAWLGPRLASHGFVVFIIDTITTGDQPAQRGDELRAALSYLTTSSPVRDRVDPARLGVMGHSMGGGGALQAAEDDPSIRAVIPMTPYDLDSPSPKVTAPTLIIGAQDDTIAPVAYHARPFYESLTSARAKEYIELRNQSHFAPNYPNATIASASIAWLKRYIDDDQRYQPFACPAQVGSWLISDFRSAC [DP034]; < 3
ADNPYQRGPDPTRTSVAAVNGPFANTSVSVPTGYGFNGGRIYYPTDTSQGTFGAIAISPGYTALFSAELAWMGPWLASHGFVVIGIETNSRNDFDTARGTQLLAALDYLTQQSPVRDRVDPNRLAVSGHSMGGGGALSAAIRRSSLKAVVGIAPYSPSSNLANDRVPTMIFSGQADTVVTPSYATGLYNSLPATTESVYLEVAGADHGFMVGRSNPVMIRTMLPFVKMFIDNDTRYSQFLCPLLDSSGVVTYRSTCPLLPPAPTTPPPTGTPTPTPSSNPTTPPTTPPSTPTA [ESM061]; < 3
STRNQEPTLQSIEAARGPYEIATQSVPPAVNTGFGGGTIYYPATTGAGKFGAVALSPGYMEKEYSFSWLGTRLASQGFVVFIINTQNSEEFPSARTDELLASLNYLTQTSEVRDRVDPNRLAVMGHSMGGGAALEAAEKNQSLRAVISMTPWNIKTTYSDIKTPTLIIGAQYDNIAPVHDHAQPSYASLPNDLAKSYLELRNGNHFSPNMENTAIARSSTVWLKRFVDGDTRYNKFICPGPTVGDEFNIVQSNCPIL [DP079]; < 3
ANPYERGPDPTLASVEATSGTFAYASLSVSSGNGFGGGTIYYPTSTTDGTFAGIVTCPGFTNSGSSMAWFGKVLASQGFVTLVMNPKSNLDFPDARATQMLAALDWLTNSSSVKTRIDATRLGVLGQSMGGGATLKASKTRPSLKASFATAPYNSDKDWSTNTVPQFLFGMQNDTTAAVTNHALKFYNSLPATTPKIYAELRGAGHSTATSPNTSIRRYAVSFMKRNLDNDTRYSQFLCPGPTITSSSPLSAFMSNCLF [DP080]; < 3
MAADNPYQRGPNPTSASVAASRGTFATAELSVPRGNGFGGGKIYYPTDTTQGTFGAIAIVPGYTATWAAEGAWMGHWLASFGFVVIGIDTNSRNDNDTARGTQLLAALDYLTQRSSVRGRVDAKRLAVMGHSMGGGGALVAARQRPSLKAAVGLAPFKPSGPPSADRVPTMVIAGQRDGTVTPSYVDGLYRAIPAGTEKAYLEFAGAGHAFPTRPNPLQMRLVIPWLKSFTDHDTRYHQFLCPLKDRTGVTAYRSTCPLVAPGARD [TEP041]; < 3
